Source: the supplement of paper PMC9170038

# Tested on: MS2 coat protein
# assay.comment: apparent KD of MS2 coat protein; higher = weaker reporter binding
# condition.info: Eterna round: R101; input ligand: FMN 200 uM
quantity: apparent KD of MS2 coat protein (µM)
Only the number, expressed in µM, is required.

Worked examples follow.
entry.sequence	apparent KD of MS2 coat protein, µM
UAAAUAAAUCCUAGAGGAUCACCCUAGGAUAUGAGGCUGCACCUCGGAUAAUCCGAGGUGCAGCCUCAGAAGGAGGUUGAUAAA [#SharedSequence - SLExNG3: 6-2] (puzzle (switch architecture): Small Loop Exclusion NG 3)	0.0118
GGUCGACCUCAAGGAUAUGGACUGCAAAGCAGUCCAGAAGGUGAGGAUCACCCAUCUACGGUCAGGAAACUGACCGAUCGACCA [#SharedSequence - ExNG1-6] (puzzle (switch architecture): Exclusion NG 1)	0.914
AAAUAAAUCGAAGGAUAUGACCCUCGAGGUGACUAAAAGUCACCUCGAGGGUCAGAAGGUCGAGGAUCACCCGAUCUAAAUAAA [#SharedSequence SLExNG1: 2-1] (puzzle (switch architecture): Small Loop Exclusion NG 1)	0.259
CGGGAUACGAAGGGCGAAAGCCCACAUGAGGAUCACCCAUGUAGAAGGCGGGCCGCAACGCGGCCCGAGGAUAUACAGUAUCCA [#my 5th design] (puzzle (switch architecture): Inverted Exclusion NG 3)	0.0105
AAUAAUCUUUAAGGAUAUGACUCCGAAACGGAGUCAGAAGGUGAGGAUCACCCAUCUAGCUCAGGGUCGAAAGACCCUGAGCAA [#SharedSequence - ExNG1-11] (puzzle (switch architecture): Exclusion NG 1)	0.101

Inquiry: Please report apparent KD of MS2 coat protein for the following sequence: ACAGGUCGUGAGAAGGCGUGUGGCACCGUCGAAAGACGGUGCAAUUAAAAUCUUCGAGGAUCACCCGAGGAUAUCACGACCUGA [#SharedSequence - IExNG2: 19] (puzzle (switch architecture): Inverted Exclusion NG 2)
Reply text: 0.0322

Inquiry: Please report apparent KD of MS2 coat protein for the following sequence: AAAGAUUUUCAAGGAUAUGACUCCGAAACGGAGUCAGAAGGUGAGGAUCACCCACCUAGCUCAGCGUCGAAAGACGCUGAGCAA [#SharedSequence ExNG1 - 27] (puzzle (switch architecture): Exclusion NG 1)
Reply text: 0.103

Inquiry: Please report apparent KD of MS2 coat protein for the following sequence: AGACCUGCUCAGAAGGCGGGUGCGAGGCUGGAAACAGCCUCGAAUUAAAAUCUUCGAGGAUCACCCGAGGAUAUGAGCAGGUCA [#SharedSequence - IExNG2: 16] (puzzle (switch architecture): Inverted Exclusion NG 2)
Reply text: 0.019

---

# System: MS2 coat protein
# assay.comment: apparent KD of MS2 coat protein; designed switch direction (-1 OFF switch, 1 ON switch): -1; higher = weaker reporter binding
# condition.info: input ligand: FMN 200 uM
quantity: apparent KD of MS2 coat protein (µM)
Only the number, expressed in µM, is required.

Worked examples follow.
entry.sequence	recorded.measurement
AUUAUAUAGACAGGAUAUUGAUUAUUAUUUUAACAUGAGGAUCACCCAUGUAACCUUAUGUAUAGCAAGAAGGGUCAUUUAUUA [Title] (Eterna round: R96, puzzle: Exclusion NG 2)	0.107
AGGAUGUAAGGAUAUCCAAGGGUAACGCCAAUGGCAGCCCAGGAGAAGGUACAUGAGGAUCACCCAUGUGAUAA [Leatbi] (Eterna round: R97, puzzle: Exclusion 4)	0.263
GUUAACGCAGGAUAUUAGUACAUGCACAUGAGGAUCACCCAUGUUUAGUGGGUCUAGGAAUAAGAAGGGCGAUGAA [EX5 #21] (Eterna round: R97, puzzle: Exclusion 5)	0.21
AGUCCUGAAGUUAGGAUAUGAAGUAUCACUGCACUUCAGAAGGGACUUGAGGAUCACCCAAGUAGCCGUGAGGG [salish99_bmod_ex4_r4_002] (Eterna round: R97, puzzle: Brourd's mod of Exclusion 4)	0.128

Read the next record carefully.
Inquiry: Please report apparent KD of MS2 coat protein for the following sequence: CUUAACUCAGGAUAUGCGGCGACAAACAUGAGGAUCACCCAUGUAAAUUGGUGAACCUGAGCAGAAGGGAGUACAA [EX5 B.2] (Eterna round: R97, puzzle: Exclusion 5)
Reply text: 0.0664
